Provenance of the data: patent US9012431B2

# System: IL-10
# run-description: Cytokine assay, IL-10 release from PBMC
# Type: cell-based
# assay-context: human PBMC, 20 ug/mL PHA, 48 hours, 10 μM
Structures can show the parent of a compound that is named as a salt.
A collection of compounds and their measured inhibition at 10 µM

[
  {
    "compound": "NCc1ccc(Oc2ccc3c(c2)COB3O)cc1",
    "inhibition at 10 µM": "< 30%"
  },
  {
    "compound": "N#Cc1cc(CNC=O)ccc1Oc1ccc2c(c1)COB2O",
    "inhibition at 10 µM": "30 to 60%"
  },
  {
    "compound": "C[NH+]1CCN(C(=O)COc2cc(Oc3ccc4c(c3)COB4O)ccc2C#N)CC1",
    "inhibition at 10 µM": "60 to 90%"
  },
  {
    "compound": "N#Cc1ccc(Oc2ccc3c(c2)COB3O)c(CN)c1 [D138, hydrochloride]",
    "inhibition at 10 µM": "30 to 60%"
  },
  {
    "compound": "CC1CCN(C(=O)COc2cc(Oc3ccc4c(c3)COB4O)ccc2C#N)CC1",
    "inhibition at 10 µM": "60 to 90%"
  },
  {
    "compound": "O=C(O)c1ccc(Oc2ccc3c(c2)COB3O)nc1",
    "inhibition at 10 µM": "< 30%"
  }
]

###

# System: IL-10
# run-description: Cytokine assay, IL-10 release from PBMC
# Type: cell-based
# assay-context: human PBMC, 20 ug/mL PHA, supernatant at 48 hours
pIC50: −log10 of the molar value.
value-kind: pIC50

[
  {
    "compound": "N#Cc1c(Cl)cccc1Oc1ccc2c(c1)COB2O",
    "reported": "5.40 to 6.00"
  },
  {
    "compound": "N#Cc1cnc(Oc2ccc3c(c2)COB3O)cc1OCCOC1CCCCO1 (centres unmarked)",
    "reported": "5.40 to 6.00"
  },
  {
    "compound": "N#Cc1ccc(Oc2ccc3c(c2)COB3O)cc1O",
    "reported": "5.40 to 6.00"
  },
  {
    "compound": "Cc1cc(Oc2ccc3c(c2)COB3O)ccc1C#N",
    "reported": "< 5.00"
  },
  {
    "compound": "O=C(NCCO)c1ccc(Oc2ccc3c(c2)COB3O)cc1",
    "reported": "5.00 to 5.40"
  },
  {
    "compound": "O=C(O)c1ccc(Oc2ccc3c(c2)COB3O)cc1",
    "reported": "< 5.00"
  },
  {
    "compound": "CN1CCN(Cc2cc(C#N)ccc2Oc2ccc3c(c2)COB3O)CC1",
    "reported": "> 6.00"
  },
  {
    "compound": "CS(=O)(=O)c1ccc(Oc2ccc3c(c2)COB3O)cc1",
    "reported": "5.40 to 6.00"
  },
  {
    "compound": "CN1CCN(C(=O)c2ccc(Oc3ccc4c(c3)COB4O)cc2)CC1",
    "reported": "< 5.00"
  },
  {
    "compound": "COCCN(C)c1nc(Oc2ccc3c(c2)COB3O)ccc1C#N",
    "reported": "5.40 to 6.00"
  },
  {
    "compound": "COc1ccc(C#N)c(Oc2ccc3c(c2)COB3O)n1",
    "reported": "5.40 to 6.00"
  }
]

###

# System: IL-10
# run-description: Cytokine assay, IL-10 release from PBMC
# Assay type: cell-based
# assay-context: human PBMC, 20 ug/mL PHA, supernatant at 48 hours
pIC50: −log10 of the molar value.
A collection of compounds and their measured pIC50

[
  {
    "compound": "COc1nc(Oc2ccc3c(c2)COB3O)ccc1C(N)=O [D112]",
    "pIC50": "> 6.00"
  },
  {
    "compound": "CCOC(=O)c1ccc(Oc2ccc3c(c2)COB3O)c(C(F)(F)F)c1 [D54]",
    "pIC50": "> 6.00"
  },
  {
    "compound": "CCOC(=O)c1ccc(Oc2ccc3c(c2)COB3O)c(F)c1 [D51]",
    "pIC50": "5.40 to 6.00"
  },
  {
    "compound": "CC(C)(C)OC(=O)COc1cc(Oc2ccc3c(c2)COB3O)ccc1C#N [D40]",
    "pIC50": "> 6.00"
  },
  {
    "compound": "COC(=O)c1ccc(Oc2ccc3c(c2)COB3O)c(F)c1 [D50]",
    "pIC50": "5.00 to 5.40"
  },
  {
    "compound": "COC(=O)c1cc(Oc2ccc3c(c2)COB3O)ccc1C#N [D6]",
    "pIC50": "5.00 to 5.40"
  },
  {
    "compound": "CCOC(=O)c1cc(F)c(Oc2ccc3c(c2)COB3O)cc1Cl [D53]",
    "pIC50": "5.40 to 6.00"
  },
  {
    "compound": "CCOC(=O)c1ccc(Oc2ccc3c(c2)COB3O)cc1 [D72]",
    "pIC50": "< 5.00"
  },
  {
    "compound": "N#Cc1cnc(Oc2ccc3c(c2)COB3O)cc1OCCO [D119]",
    "pIC50": "> 6.00"
  },
  {
    "compound": "COc1nc(Oc2ccc3c(c2)COB3O)ccc1C#N [D46]",
    "pIC50": "> 6.00"
  },
  {
    "compound": "N#Cc1ccc(Oc2ccc3c(c2)COB3O)nc1NCCO [D132]",
    "pIC50": "> 6.00"
  }
]

###

A collection of compounds and their measured IC50
# Test system: TNF-α
# run-description: Cytokine assay, TNF-α release from PBMC
# Assay type: cell-based
# assay-context: Homo sapiens, PBMC, 24 h, 1 μg/mL LPS, supernatant at 24 hours

[
  {
    "line-notation": "N#Cc1ccc(Oc2ccc3c(c2)COB3O)cc1C(F)(F)F",
    "IC50": "< 1000 nM"
  },
  {
    "line-notation": "N#Cc1ccc(Oc2ccc3c(c2)COB3O)nc1NCc1ccccc1",
    "IC50": "< 1000 nM"
  },
  {
    "line-notation": "N#Cc1cc(CNC=O)ccc1Oc1ccc2c(c1)COB2O",
    "IC50": "1000 to 4000 nM"
  },
  {
    "line-notation": "CC(C)OC(=O)c1ccc(Oc2ccc3c(c2)COB3O)nc1",
    "IC50": "< 1000 nM"
  },
  {
    "line-notation": "CCOC(=O)c1ccc(Oc2ccc3c(c2)COB3O)nc1",
    "IC50": "< 1000 nM"
  },
  {
    "line-notation": "N#Cc1ccc(Oc2ccc3c(c2)COB3O)cc1",
    "IC50": "< 1000 nM"
  }
]

###

# Tested on: TNF-α
# run-description: Cytokine assay, TNF-α release from PBMC
# Assay type: cell-based
# assay-context: Homo sapiens, PBMC, 24 h, 1 μg/mL LPS, supernatant at 24 hours
value-kind: IC50

[
  {
    "line-notation": "COC(=O)c1cc(F)c(Oc2ccc3c(c2)COB3O)c(F)c1",
    "reported": "> 10000 nM"
  },
  {
    "line-notation": "CN(CCO)c1nc(Oc2ccc3c(c2)COB3O)ccc1C#N",
    "reported": "< 1000 nM"
  },
  {
    "line-notation": "CN(C)CCNC(=O)c1ccc(Oc2ccc3c(c2)COB3O)cc1",
    "reported": "> 10000 nM"
  },
  {
    "line-notation": "CCOC(=O)c1nc(Oc2ccc3c(c2)COB3O)ccc1C#N",
    "reported": "< 1000 nM"
  },
  {
    "line-notation": "CCN(CC)C(=O)COc1cc(C#N)ccc1Oc1ccc2c(c1)COB2O",
    "reported": "< 1000 nM"
  },
  {
    "line-notation": "N#Cc1ccc(Oc2ccc3c(c2)COB3O)c(OCC(=O)O)c1",
    "reported": "4000 to 10000 nM"
  },
  {
    "line-notation": "COc1nc(Oc2ccc3c(c2F)COB3O)ccc1C#N",
    "reported": "< 1000 nM"
  },
  {
    "line-notation": "CC(C)(C)OC(=O)COc1cc(C#N)ccc1Oc1ccc2c(c1)COB2O",
    "reported": "< 1000 nM"
  },
  {
    "line-notation": "CC(C)(C)/[N+]([O-])=C/c1ccc(Oc2ccc3c(c2)COB3O)nc1",
    "reported": "1000 to 4000 nM"
  },
  {
    "line-notation": "CC(=O)OCCOc1nc(Oc2ccc3c(c2)COB3O)ccc1C#N",
    "reported": "< 1000 nM"
  }
]
